- TEST SUMMARY: Inhibition of IL6-induced STAT3 in human CAL33 cells
pIC50: −log10 of the molar value.
Entries and their measured pIC50 follow.
QUANTITY MEASURED: pIC50

>  <MOLECULE>
COc1ccc(C2CSc3nnc(-c4[nH]nc5c4CCC5)n3N2)cc1 (stereo not given)

>  <QUANTITY MEASURED>
pIC50

>  <RESULT>
< 4.30

$$$$
>  <MOLECULE>
c1cc(C2=Nn3c(nnc3-c3[nH]nc4c3CCC4)SC2)ccn1

>  <QUANTITY MEASURED>
pIC50

>  <RESULT>
< 4.30

$$$$
>  <MOLECULE>
C1=Nn2c(nnc2-c2[nH]nc3c2CCC3)SC1

>  <QUANTITY MEASURED>
pIC50

>  <RESULT>
< 4.30

$$$$
>  <MOLECULE>
CC1=Nn2c(nnc2-c2cc(-c3ccccc3)[nH]n2)SC1

>  <QUANTITY MEASURED>
pIC50

>  <RESULT>
< 4.30

$$$$
>  <MOLECULE>
COc1ccc(C2CSc3nnc(-c4cc(-c5ccccc5)n[nH]4)n3N2C(C)=O)cc1 (stereo not given)

>  <QUANTITY MEASURED>
pIC50

>  <RESULT>
< 4.30

$$$$
>  <MOLECULE>
CC1=Nn2c(nnc2-c2[nH]nc3c2CCC3)SC1

>  <QUANTITY MEASURED>
pIC50

>  <RESULT>
< 4.30

$$$$
>  <MOLECULE>
Fc1ccc(-c2cc(-c3nnc4n3N=C(c3ccc(Cl)c(Cl)c3)CS4)[nH]n2)cc1

>  <QUANTITY MEASURED>
pIC50

>  <RESULT>
5.12

$$$$
>  <MOLECULE>
Clc1ccc(C2=Nn3c(nnc3-c3cc(-c4ccccc4)n[nH]3)SC2)s1

>  <QUANTITY MEASURED>
pIC50

>  <RESULT>
< 4.30

$$$$
>  <MOLECULE>
c1ccc(-c2cc(-c3nnc4n3N=C(C3CCCCC3)CS4)[nH]n2)cc1

>  <QUANTITY MEASURED>
pIC50

>  <RESULT>
< 4.30

$$$$
>  <MOLECULE>
c1ccc(-c2cc(-c3nnc4n3N=C(c3ccncc3)CS4)[nH]n2)cc1

>  <QUANTITY MEASURED>
pIC50

>  <RESULT>
< 4.30

$$$$
>  <MOLECULE>
Clc1ccc(C2=Nn3c(nnc3-c3[nH]nc4c3CCCC4)SC2)cc1Cl

>  <QUANTITY MEASURED>
pIC50

>  <RESULT>
4.81

$$$$
>  <MOLECULE>
C1=Nn2c(nnc2-c2cc(-c3ccccc3)n[nH]2)SC1

>  <QUANTITY MEASURED>
pIC50

>  <RESULT>
< 4.30

$$$$
>  <MOLECULE>
COc1ccc(C2=Nn3c(nnc3-c3cc(-c4ccccc4)n[nH]3)SC2)cc1

>  <QUANTITY MEASURED>
pIC50

>  <RESULT>
5.43

$$$$
>  <MOLECULE>
C1CCC(C2=Nn3c(nnc3-c3[nH]nc4c3CCC4)SC2)CC1

>  <QUANTITY MEASURED>
pIC50

>  <RESULT>
< 4.52

$$$$
>  <MOLECULE>
Clc1ccc(-c2cc(-c3nnc4n3N=C(c3ccc(Cl)c(Cl)c3)CS4)[nH]n2)cc1

>  <QUANTITY MEASURED>
pIC50

>  <RESULT>
4.84

$$$$

----------
- TESTED TARGET: Signal transducer and activator of transcription 1-alpha/beta (Homo sapiens)
- Sequence (P42224 whole entry): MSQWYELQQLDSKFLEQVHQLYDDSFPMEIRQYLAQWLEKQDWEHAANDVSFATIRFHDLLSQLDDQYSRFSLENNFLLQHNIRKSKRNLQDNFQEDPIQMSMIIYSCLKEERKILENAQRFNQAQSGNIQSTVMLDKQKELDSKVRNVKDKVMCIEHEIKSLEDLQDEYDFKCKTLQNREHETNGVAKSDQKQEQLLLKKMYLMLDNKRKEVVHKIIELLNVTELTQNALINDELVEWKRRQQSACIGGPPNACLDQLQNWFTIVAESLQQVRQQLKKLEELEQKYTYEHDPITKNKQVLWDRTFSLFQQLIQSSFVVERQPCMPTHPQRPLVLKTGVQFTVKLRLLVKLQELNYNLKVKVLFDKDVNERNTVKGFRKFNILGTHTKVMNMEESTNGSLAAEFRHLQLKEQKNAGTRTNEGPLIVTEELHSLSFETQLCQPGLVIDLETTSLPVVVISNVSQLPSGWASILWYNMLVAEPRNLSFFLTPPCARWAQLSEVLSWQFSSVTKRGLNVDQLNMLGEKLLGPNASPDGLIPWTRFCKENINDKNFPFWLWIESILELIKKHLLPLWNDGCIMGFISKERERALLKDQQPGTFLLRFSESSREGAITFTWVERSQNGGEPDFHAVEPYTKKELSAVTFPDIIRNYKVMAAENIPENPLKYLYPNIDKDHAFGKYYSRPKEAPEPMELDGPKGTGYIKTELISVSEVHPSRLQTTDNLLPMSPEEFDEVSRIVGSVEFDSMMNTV
- TEST SUMMARY: Inhibition of IFNgamma-induced STAT1 (unknown origin)
pIC50: −log10 of the molar value.
QUANTITY MEASURED: pIC50

>  <COMPOUND>
COc1ccc(C2=Nn3c(nnc3-c3[nH]nc4c3CCC4)SC2C)cc1 (configuration not stated)

>  <QUANTITY MEASURED>
pIC50

>  <RESULT>
< 4.30

$$$$
>  <COMPOUND>
COc1ccc(C2=Nn3c(nnc3-c3[nH]nc4c3CCC4)SC2C(C)C)cc1 (configuration not stated)

>  <QUANTITY MEASURED>
pIC50

>  <RESULT>
< 4.30

$$$$
>  <COMPOUND>
Clc1ccc(C2=Nn3c(nnc3-c3[nH]nc4c3CCC4)SC2)cc1

>  <QUANTITY MEASURED>
pIC50

>  <RESULT>
< 4.30

$$$$
>  <COMPOUND>
CC1(C)Sc2nnc(-c3[nH]nc4c3CCC4)n2N=C1c1ccc(Cl)c(Cl)c1

>  <QUANTITY MEASURED>
pIC50

>  <RESULT>
< 4.30

$$$$
>  <COMPOUND>
Clc1ccc(C2=Nn3c(nnc3-c3[nH]nc4c3CCC4)SC2Cc2ccccc2)cc1Cl (configuration not stated)

>  <QUANTITY MEASURED>
pIC50

>  <RESULT>
< 4.30

$$$$
>  <COMPOUND>
c1ccc(C2=Nn3c(nnc3-c3cc(-c4ccccc4)[nH]n3)SC2)cc1

>  <QUANTITY MEASURED>
pIC50

>  <RESULT>
< 4.30

$$$$
>  <COMPOUND>
CC1=Nn2c(nnc2-c2cc(-c3ccccc3)[nH]n2)SC1

>  <QUANTITY MEASURED>
pIC50

>  <RESULT>
< 4.30

$$$$
>  <COMPOUND>
c1ccc(-c2cc(-c3nnc4n3N=C(C3CCCCC3)CS4)[nH]n2)cc1

>  <QUANTITY MEASURED>
pIC50

>  <RESULT>
< 4.30

$$$$
>  <COMPOUND>
CC(C)CC1Sc2nnc(-c3[nH]nc4c3CCC4)n2N=C1c1ccc(Cl)c(Cl)c1 (configuration not stated)

>  <QUANTITY MEASURED>
pIC50

>  <RESULT>
< 4.30

$$$$
>  <COMPOUND>
Clc1ccc(C2=Nn3c(nnc3-c3cc(-c4ccccc4)[nH]n3)SC2)cc1 [MLS000558549]

>  <QUANTITY MEASURED>
pIC50

>  <RESULT>
< 4.30

$$$$
>  <COMPOUND>
COc1ccc(C2=Nn3c(nnc3-c3cc(-c4ccc(F)cc4)n[nH]3)SC2C)cc1 (configuration not stated)

>  <QUANTITY MEASURED>
pIC50

>  <RESULT>
< 4.52

$$$$
>  <COMPOUND>
CC1Sc2nnc(-c3cc(-c4ccc(F)cc4)n[nH]3)n2N=C1c1ccccc1 (configuration not stated)

>  <QUANTITY MEASURED>
pIC50

>  <RESULT>
< 4.52

$$$$
